- Test system: Aphis craccivora
- METHOD: whole plant or invertebrate
- Assay type: in vivo
- COND: 500 ppm; wingless adults, immersion 5 seconds, counted after 24 hours
- Experimental: (3) Insecticidal Activity on Aphid Adults. Aphid is a homoptera pest with a piercing-sucking mouthpart and is a common vegetable pest. Aphis craccivora were taken as test objects and tested by using an impregnation method. Operation process: Samples were weighed accurately, and respectively added with 200 μL of dimethyl sulfoxide to prepare 10 g/L mother liquor which was diluted into a concentration of 500 ppm with an aqueous solution containing 0.05% of Tween-80 during the test. […]
QUANTITY_KIND: Aphis craccivora Mortality (%)
Field: numeric (%). Do not append units.

COMPOUND	Aphis craccivora Mortality (%)
CCOC(=O)C1(CC(=O)OC)Nc2c([S+]([O-])C(F)(F)F)c(C#N)nn2-c2c(C(F)(F)F)ccc(Cl)c21 (stereo not shown) [e-6]	100

Summary for this compound, COC(=O)C1(CC(=O)OCC(F)F)Nc2c([S+]([O-])C(F)(F)F)c(C#N)nn2-c2cc(C(F)(F)F)cc(Cl)c21 (stereo not shown) [c-20] : Aphis craccivora Mortality (%) is 100

Reported Aphis craccivora Mortality (%) for N#CCC1(Cl)Nc2c([S+]([O-])C(F)(F)F)c(C#N)nn2-c2c(Cl)cc(C(F)(F)F)cc21 (stereo not drawn) [d-60] was 90

So, COC(=O)C1(CC(=O)OCC(F)(F)F)Nc2c([S+]([O-])C(F)(F)F)c(C#N)nn2-c2c(Cl)cc(C(F)(F)F)cc21 (stereo not drawn) [d-27] ? Its Aphis craccivora Mortality (%) was 100

---

Listing of recorded Toxicity determination Apis cernan Mortality (%) by entry.
- Test system: Apis cernan
- METHOD: Toxicity test on adult worker bees of Apis cernan, small beaker method
- Format: in vivo
- COND: 500 ppm, 48 hours
Write the number in % without appending the unit.

Completed entries (count: 5):
COMPOUND	MEASURED_VALUE
C=CC1(CCl)Nc2c(-c3cc(C)oc3C)c(C#N)nn2-c2c(Cl)cc(C(F)(F)F)cc21 (stereo not drawn)	9
CN(C)CC1(CC#N)Nc2c([S+]([O-])C(F)(F)F)c(C#N)nn2-c2c(Cl)cc(C(F)(F)F)cc21 (stereo not drawn)	4
Nc1ccc2c(c1)-n1nc(C(F)(F)F)c(SC(F)(F)F)c1NC2(C(F)(F)F)C(F)(F)F	17
C=CC1(CC#N)Nc2c([S+]([O-])C(F)(F)F)c(C#N)nn2-c2c(Cl)cc(C(F)(F)F)cc21 (stereo not drawn)	10
N#CCC1(C(=O)O)Nc2c([S+]([O-])C(F)(F)F)c(C#N)nn2-c2c(Cl)cc(C(F)(F)F)cc21 (stereo not drawn)	0

For record COC(=O)/C=C/C1(CC#N)Nc2c([S+]([O-])C(F)(F)F)c(C#N)nn2-c2c(Cl)cc(C(F)(F)F)cc21 (stereo not drawn) the listed Toxicity determination Apis cernan Mortality (%) is 4

According to the records, this compound CC1(C)Nc2c([S+]([O-])C(F)(F)F)c(C#N)nn2-c2ccccc21 (stereo not drawn) displays Toxicity determination Apis cernan Mortality (%) of 10

Entry under test: N#Cc1nn2c(c1[S+]([O-])C(F)(F)F)NC(C(O)CO)c1cc(C(F)(F)F)cc(Cl)c1-2 (stereo not drawn) . Its Toxicity determination Apis cernan Mortality (%) was 5

response.value for CCOC(=O)c1c(SC)nn2c1NC(F)(C(F)(F)F)c1ccccc1-2 (stereo not drawn) (field: Toxicity determination Apis cernan Mortality (%)) = 15

// sample N#Cc1cnn2c1NC(N)(CN)c1ccc(Cl)cc1-2 (stereo not drawn) , its Toxicity determination Apis cernan Mortality (%) was 5

Reported Toxicity determination Apis cernan Mortality (%) of COC(=O)Nc1ccc2c(c1)-n1cc(C#N)c(C#N)c1NC2(C#N)C#N : 3

Looking up C=CC1(CCl)Nc2cc(C#N)nn2-c2c(Cl)cc(C(F)(F)F)cc21 (stereo not drawn) , I found its Toxicity determination Apis cernan Mortality (%) recorded as 7

---

- System: Bombyx mori L.
- METHOD: Toxicity test on 2nd-instar larvae of Bombyx mori L., leaf immersion feeding method
- Format: in vivo
- COND: 1000 ppm, 24 hours
- Source text: (1) Toxicity Test on 2nd-Instar Larvae of Bombyx mori L. Bombyx mori L. is an important economic insect sensitive to pesticides in an agricultural ecosystem, and is also one of the non-target organisms of environmental ecology listed in pesticide registration of China. The 2nd-instar larvae of Bombyx mori L. were used as test objects and tested by using a leaf immersion feeding method. […]
QUANTITY_KIND: Toxicity determination Bombyx mori L. Mortality (%)
Phrase the answer as number then unit, nothing more needed.

COMPOUND	MEASURED_VALUE
CC1(C)Nc2c(N)c(C#N)nn2-c2ccccc21 [Compound A15]	8%
COC(=O)C1(CC#N)Nc2c([S+]([O-])C(F)(F)F)c(C#N)nn2-c2c(Cl)cc(C(F)(F)F)cc21 (centres unmarked) [Compound C31]	3%
N#Cc1cn2c(c1C#N)NC(C#N)(C#N)c1ccc(Br)cc1-2 [Compound B9]	0%
CCOC(=O)c1c(SC)nn2c1NC(C)(C)c1nc(F)ncc1-2 [Compound A44]	8%

// Toxicity determination Bombyx mori L. Mortality (%) lookup, compound = CC1(C)Nc2c([N+](=O)[O-])c(C#N)nn2-c2ccccc21 [Compound A21] , result: 0%

---

mortality at 100 ppm for assorted compounds
- System: Solenopsis invicta
- METHOD: whole plant or invertebrate
- Assay type: in vivo
- COND: Solenopsis invicta, 24 h, read-out: Solenopsis invicta Mortality (%) 100 ppm 24 h, 100 ppm; 24 h; water test tube poison-feeding
- From the text: (4) Insecticidal Activity on Solenopsis invicta. As a hymenoptera pests and a social insect, Solenopsis invicta is one of the most destructive invasive organisms. Solenopsis invicta were used as test objects and tested by using a water test tube poison-feeding method. […]

Example entries and their recorded answers appear below.
COMPOUND	ASSAYED_SYSTEM	QUANTITY_KIND	MEASURED_VALUE
N#Cc1nn2c(c1[S+]([O-])C(F)(F)F)NC(C(O)CO)(C(F)(F)F)c1cc(C(F)(F)F)cc(Cl)c1-2 (stereo not drawn)	Solenopsis invicta	mortality at 100 ppm	20%
CC1(C)Nc2cc(C#N)nn2-c2ccccc21	Solenopsis invicta	mortality at 100 ppm	20%

Proceed to the following item.
Reported mortality at 100 ppm of COc1ccc(-c2cn3c(c2C(C)=O)NC(C(N)=O)(C(N)=O)c2ccc([N+](=O)[O-])cc2-3)cc1 : 20%

---

- System: Solenopsis invicta
- METHOD: whole plant or invertebrate
- Assay type: in vivo
- COND: Solenopsis invicta, 24 h, read-out: Solenopsis invicta Mortality (%) 100 ppm 24 h, 100 ppm; 24 h; water test tube poison-feeding
Decide using mortality at 100 ppm: a value greater than or equal to 30% is label 1, a smaller one is label 0.

These recorded examples may help you get a feel for the data.
COMPOUND	DISCRETE_LABEL
CCc1nn2c(c1Br)NC(/C=C\C(=O)OC)(/C=C/C(=O)OC)c1cc(C(F)(F)F)cc(Cl)c1-2 (centres unmarked)	label 0
C=CC1(CCl)Nc2c(-c3ccccc3C(F)(F)F)c(C#N)nn2-c2c(Cl)cc(C(F)(F)F)cc21 (centres unmarked)	label 1
C=CC1(C(F)(F)F)Nc2c([S+]([O-])C(F)(F)F)c(C#N)nn2-c2c(Cl)cc(C(F)(F)F)cc21 (centres unmarked)	label 0
CC(=O)c1nn2c(c1[S+](C)[O-])NC(CBr)(CC#N)c1cc(C(F)(F)F)cc(Cl)c1-2 (centres unmarked)	label 0
Nc1ccc2c(c1)-n1nc(C(F)(F)F)c(Br)c1NC2(C(F)(F)F)C(F)(F)F	label 1

Exercise: Please tell me: is the compound N#Cc1nn2c(c1[S+]([O-])C(F)(F)F)NC(CC(=O)O)(C(=O)O)c1cc(C(F)(F)F)cc(Cl)c1-2 (centres unmarked) at or over 30% in terms of mortality at 100 ppm?
Solution: label 0

Exercise: Textbook exercise: given the entry CSc1nn2c(c1C(=O)N1CCN(C)CC1)NC(F)(C(F)(F)F)c1ccccc1-2 (centres unmarked) , state whether its mortality at 100 ppm is greater than or equal to 30%.
Solution: label 1

Exercise: Tell me whether mortality at 100 ppm is at least 30% here: O=[N+]([O-])c1cc2n(n1)-c1cnccc1C(F)(CC(F)(F)F)N2 (centres unmarked)
Solution: label 0

---

Below, each entry is listed alongside its reported Spodoptera exigua Mortality (%) 500 ppm.
- Tested on: Spodoptera exigua
- METHOD: whole plant or invertebrate
- Assay type: in vivo
- COND: 500 ppm; 2nd-instar larvae; leaf immersion feeding; 24 hours
Express it in %; write the number only.

COMPOUND	RESULT_UNITS	MEASURED_VALUE
COC(=O)CC1(C(=O)C(F)(F)F)Nc2c([S+]([O-])C(F)(F)F)c(C#N)nn2-c2ncc(C(F)(F)F)cc21 (stereo not drawn) [a-28]	%	95
N#Cc1nn2c(c1[S+]([O-])C(F)(F)F)NC(Cc1ccccc1)(C(=O)C(F)(F)F)c1cc(C(F)(F)F)cnc1-2 (stereo not drawn) [a-27]	%	100

Here is the next item to consider.
For COC(=O)CC1(C#N)Nc2c([S+]([O-])C(F)(F)F)c(C#N)nn2-c2ncc(C(F)(F)F)cc21 (stereo not drawn) [a-56] the compound record lists Spodoptera exigua Mortality (%) 500 ppm as 90
